Cited source: patent US20210292393A1

The entries below come with measured median fluorescence fold over isotype control values attached.
- test-target: SARS-CoV-2 full length spike protein, D614G mutant (SARS-CoV-2, UniProt P0DTC2 14-1273)

binder: antibody 430 (antibody, V domains shown) VH: QVHLVEAGGGVVQPGKSLRLSCAASGFIFSNFGMHWVRQSPGKGLEWVAVVSYDASVTKYSDSFEGRFTISRDNSKNTLYLQMDSLRPEDSAVYYCAKGQGANLLHDWGQGILVTVSS VL: DVVLTQSPLSLPVTLGQPASISCRSSESLVYTDGDTYLHWFHQRPGQSPRRLIYKVSNRDSGVPDRFSGSGSGTDFTLRISRVEAEDVGVYYCMQGTHWPFTFGPGTKVDIK
test-result: 9.17 fold over isotype
//
binder: antibody 455 (antibody, V domains shown) VH: QVQLVQSGAEVKKPGSSVKVSCKASGGTFSSYAISWVRQAPGQGLEWMGRIIPILGIANYAQKFQGRVTITADKSTSTAYMELSSLRSEDTAVYYCARDSIVVPAAIISGYYYYGMDVWGQGTTVTVSS VL: QSVLTQPPSVSAAPGQKVTISCSGSSSNIGNNYVSWYQQLPGTAPKLLIYDNNKRPSGIPDRFSGSKSGTSATLGITGLQTGDEADYYCGTWDSSLSAGRVFGGGTKLTVL
test-result: 8.24 fold over isotype

Attention now turns to another entry.
Consider antibody 458 (antibody, V domains shown) VH: QVQLVESGGGVVQPGRSLRLSCAASEFTFATYAMHWVRQAPGKGLEWVALISQDGSNKHYADSVKGRFTISRDNSKNTLYLQMNSLRAEGTAIYYCARESLEAAGPPFDYWGQGTLVTVSS VL: SYELTQPPSVSVSPGQTATIICSGDKLGEKYASWYQQKPGQSPALVIYQDRKRPSGIPERFSGSNSGNTATLTISGTQAMDEADYYCQAWDSSNSVVFGGGTKLTVP . Its measured median fluorescence fold over isotype control is 6.23 fold over isotype
